Test system: NCI-H522 lung
Experiment: NCI-60 one-dose screen, 48 h (100 = growth as untreated, 0 = no growth, -100 = all killed)
Settings: 10 µM
Experimental: Growth inhibition of the NCI-H522 human Non-Small Cell Lung tumor cell line is measured as a screen for anti-cancer activity. Cells are grown in 96 well plates and exposed to the test compound for 48 hours. Compounds are tested at a single concentration, which is 10^-5 M for most compounds. The reported endpoint is percent growth (GI% or GIPRCNT), where numbers from 0 - 100% represent growth inhibition, and numbers from -100% - 0 represent cell death. […]
This is part of a sample that, as a whole, favours compounds with a hit. Of some 83,000 tested, about 20% had one in any assay.
Tick 1 if growth is 60% or greater. Tick 0 if growth is less than 60%.

Challenge: Hello, I need to know if `CCCSc1nc(NC2CC2)c(C#N)c(-c2ccc(OC)cc2)n1` has measured growth not below 60%. Thanks!
Response given: 1

----------
Test system: BT-549 breast
Experiment: NCI-60 one-dose screen, 48 h (100 = growth as untreated, 0 = no growth, -100 = all killed)
Details: 10 µM
About 83,000 compounds went through this panel and 20% of them were active in at least one assay; those are over-represented in the sample as a whole.
readout: growth (%)
I only need the number, in %, no unit after it.

Reference set, count: 3
# compound `Nc1nc(Nc2ccccc2)nn1Cc1c(Cl)cccc1Cl` ; its growth = 23.6

# compound `COc1ccc(OC)c(-c2cc(-c3c[nH]c4ccccc34)nc(N)c2C#N)c1` ; its growth = -25.4

# compound C=C1CCC2C3(C)COC(c4ccccc4F)OC3CCC2(C)C1C/C=C1/C(=O)OCC1O (centres undefined) ; its growth = -82.1

More entries:
# compound `C=C(C)[C@@H]1CC[C@]2(C)[C@H](CC=C3[C@@H]4CC(C)(C)CC[C@]4(C(=O)N4CCOCC4)CC[C@]32C)[C@@]1(C)CCCN` ; its growth = -85.3

# compound CCC(C)S(=O)(=O)c1oc(-c2ccc(C)cc2)nc1S(=O)(=O)c1ccccc1 (centres undefined) ; its growth = -13.3

# compound `O=C(/C=C/Nc1ccccc1)c1ccc2c(c1)Nc1ccccc1S2` ; its growth = 95.6

# compound `CCCCOc1ccc(Nc2nc3ccccc3nc2Nc2ccc(OCCCC)cc2)cc1` ; its growth = 104

# compound COc1ccc(C2NC(=S)NC(C)=C2C(=O)OC(C)C)cc1OC (centres undefined) ; its growth = 103

----------
Tested on: OVCAR-5 ovarian
Experiment: NCI-60 one-dose screen, 48 h
Conditions: 10 µM
Experimental: Growth inhibition of the OVCAR-5 human tumor cell line is measured as a screen for anti-cancer activity. Cells are grown in 96 well plates and exposed to the test compound for 48 hours. Compounds are tested at a single concentration, which is 10^-5 M for most compounds. The reported endpoint is percent growth (GI% or GIPRCNT), where numbers from 0 - 100% represent growth inhibition, and numbers from -100% - 0 represent cell death. For example, a value of 40 represents 60% growth inhibition. […]
Compounds without any hit were thinned out: in the full panel of roughly 83,000, 20% have a hit. Active and inactive are the calls of the source. The calls were made as follows: active = growth percent below 10; inactive = the rest.
Pick one and only one: Y for active, N for inactive

Challenge: Could you kindly confirm the outcome this assay logged for `COc1cnc2c(c1)C(=O)c1c-2n(CCCNC(C)C)c(=O)c2cc(OC)c(OC)cc12` ?
Response given: N

Challenge: Could you kindly confirm the outcome this assay logged for `O=C(Nc1cc(Cl)cc(Cl)c1)Nc1cc(Cl)cc(Cl)c1` ?
Response given: Y

Challenge: Could you kindly confirm the outcome this assay logged for `Cc1ccc(-c2ccc(SCC(=O)Nc3ccc(Cl)c(C(F)(F)F)c3)nn2)cc1` ?
Response given: N

Challenge: Could you kindly confirm the outcome this assay logged for COc1cc(C2CC(c3ccccc3)=Nc3c(N)nc(N)nc3N2)ccc1Oc1nc(Nc2ccc(F)cc2)nc(N(C)C)n1 (stereo not given) ?
Response given: N

Challenge: Could you kindly confirm the outcome this assay logged for `N#Cc1ccc(-c2nn(-c3ccc(C(=O)O)cc3)cc2CNc2ccc(Oc3ccccc3)cc2)cc1` ?
Response given: N
